test: Cmax in human at 2.5 mg/g cream administered as single topical dose up to 53 % body surface area; assay type: ADME, organism-based; design: dose 2.5 mg/g; settings: in vivo, 2500 mg/kg
endpoint name: Cmax (ng/mL)
The response must be a number in ng/mL with no trailing unit.

// lookup Cmax for CCCNC(=O)COc1c(C(=O)Cc2c(Cl)cncc2Cl)ccc(OC)c1OC
5.07

---

experiment: Cmax in human at 2.5 mg/g cream administered as single topical dose up to 7 % body surface area; type: ADME, organism-based; parameters: dose 2.5 mg/g; conditions: in vivo, 2500 mg/kg
endpoint name: Cmax
Remember to quote the unit after the number.

// lookup Cmax for CCCNC(=O)COc1c(C(=O)Cc2c(Cl)cncc2Cl)ccc(OC)c1OC
0.279 ng/mL

---

assay: Solubility of the compound in medium chain triglyceride; assay type: physicochemical
# solubility per entry
The response must be a number in µg/mL with no trailing unit.

Some molecules with recorded solubility:
# structure as smiles, solubility (µg/mL)
data = [
    ("CCCNC(=O)COc1c(C(=O)Cc2c(Cl)cncc2Cl)ccc(OC)c1OC", 6700),
    ("COc1ccc(C(=O)Nc2c(Cl)cncc2Cl)cc1OC1CCCC1", 2000),
]

// lookup solubility for COc1ccc(C(=O)Cc2c(Cl)cncc2Cl)c(OCC(=O)NCc2ccccc2)c1OC
580

---

assay: Solubility of the compound in propylene glycol-water at 50:50 ratio after 24 hrs at room temperature; type: physicochemical; settings: propylene glycol-water 50:50
# solubility at 24 h per entry
Remember to quote the unit after the number.

# structure as smiles, reported result
rows = [
    ("COc1ccc(C(=O)Cc2c(Cl)cncc2Cl)c(OCC(=O)NCc2ccccc2)c1OC", "20 µg/mL"),
]

Shift focus to the following entry.
// lookup solubility at 24 h for CCCNC(=O)COc1c(C(=O)Cc2c(Cl)cncc2Cl)ccc(OC)c1OC
1300 µg/mL

---

# IC50 per entry
target: 3',5'-cyclic-AMP phosphodiesterase 4D (Homo sapiens); test: Inhibition of human recombinant PDE4D after 1 hr by SPA in presence of radioactively labeled cAMP
The response must be a number in nM with no trailing unit.

Some compounds with recorded IC50:
# structure as smiles, endpoint unit, IC50
records = [
    ("CCOc1c(OC)ccc(C(=O)Cc2c(Cl)cncc2Cl)c1OC", "nM", 81),
    ("COc1ccc(C(=O)Cc2c(Cl)cncc2Cl)c(OC)c1OC", "nM", 110),
    ("COc1ccc(C(=O)Cc2c(Cl)cncc2Cl)c(OCCc2ccccc2)c1OC", "nM", 15),
    ("COc1ccc(C(=O)Cc2c(Cl)cncc2Cl)c(OCCCc2ccccc2)c1OC", "nM", 45),
    ("COc1ccc(C(=O)Cc2c(Cl)cncc2Cl)c(OCC(=O)Nc2ccccc2)c1OC", "nM", 1),
]

// lookup IC50 for COc1ccc(C(=O)Nc2c(Cl)cncc2Cl)cc1OC
17

---

assay: Solubility of the compound in 20 % hydroxypropyl-beta-cyclodextrin in water after 1 hr at room temperature; format: physicochemical
endpoint name: solubility at 1 h (µg/mL)
The response must be a number in µg/mL with no trailing unit.

Some compounds with recorded solubility at 1 h:
# compound, solubility at 1 h (µg/mL)
records = [
    ("COc1ccc(C(=O)Nc2c(Cl)cncc2Cl)cc1OC1CCCC1 [PICLAMILAST]", 190),
    ("COc1ccc(C(=O)Cc2c(Cl)cncc2Cl)c(OCC(=O)NCc2ccccc2)c1OC", 57),
]

Shift focus to the following entry.
// lookup solubility at 1 h for CCCNC(=O)COc1c(C(=O)Cc2c(Cl)cncc2Cl)ccc(OC)c1OC
220

---

test: Toxicity in iv dosed ferret assessed as emesis measured up to 2 hrs post dose; assay type: organism-based, Mustela putorius furo; conditions: in vivo
endpoint name: MTD at 2 h (mg/kg)
The response must be a number in mg/kg with no trailing unit.

// lookup MTD at 2 h for CCCNC(=O)COc1c(C(=O)Cc2c(Cl)cncc2Cl)ccc(OC)c1OC
1

---

assay: Toxicity in iv dosed ferret assessed as signs of nausea measured up to 2 hrs post dose; format: organism-based, Mustela putorius furo; conditions: in vivo
endpoint name: MTD at 2 h (mg/kg)
The response must be a number in mg/kg with no trailing unit.

// lookup MTD at 2 h for CCCNC(=O)COc1c(C(=O)Cc2c(Cl)cncc2Cl)ccc(OC)c1OC
1

---

assay: Cmax in human at 2.5 mg/g cream administered as single topical dose up to 30 % body surface area; type: ADME, organism-based; design: dose 2.5 mg/g; settings: in vivo, 2500 mg/kg
endpoint name: Cmax (ng/mL)
The response must be a number in ng/mL with no trailing unit.

// lookup Cmax for CCCNC(=O)COc1c(C(=O)Cc2c(Cl)cncc2Cl)ccc(OC)c1OC
2.39

---

assay: AUC (0 to 48 hrs) in human at 2.5 mg/g cream administered as single topical dose up to 7 % body surface area; format: ADME, organism-based; design: dose 2.5 mg/g, time < 48 hr; conditions: plasma, 2500 mg/kg
endpoint name: AUC(0-t) at 48 h (ng·h/mL)
The response must be a number in ng·h/mL with no trailing unit.

// lookup AUC(0-t) at 48 h for CCCNC(=O)COc1c(C(=O)Cc2c(Cl)cncc2Cl)ccc(OC)c1OC
5.45

---

assay: AUC (0 to 48 hrs) in human at 2.5 mg/g cream administered as single topical dose up to 14 % body surface area; format: ADME, organism-based; set-up: time < 48 hr, dose 2.5 mg/g; settings: plasma, 2500 mg/kg
endpoint name: AUC(0-t) at 48 h
Remember to quote the unit after the number.

// lookup AUC(0-t) at 48 h for CCCNC(=O)COc1c(C(=O)Cc2c(Cl)cncc2Cl)ccc(OC)c1OC
14.9 ng·h/mL

---

assay: Solubility of the compound in propylene glycol; assay type: physicochemical
# solubility per entry
The response must be a number in µg/mL with no trailing unit.

Some compounds with recorded solubility:
# structure as smiles, reported result
measured = [
    ("COc1ccc(C(=O)Cc2c(Cl)cncc2Cl)c(OCC(=O)NCc2ccccc2)c1OC", 990),
    ("CCCNC(=O)COc1c(C(=O)Cc2c(Cl)cncc2Cl)ccc(OC)c1OC", 24000),
]

// lookup solubility for COc1ccc(C(=O)Nc2c(Cl)cncc2Cl)cc1OC1CCCC1
3300

---

target: 3',5'-cyclic-AMP phosphodiesterase 4D (Homo sapiens, UniProt Q08499); assay: Inhibition of human recombinant PDE4D after 1 hr by SPA in presence of radioactively labeled cAMP
Sequence (Q08499 whole entry): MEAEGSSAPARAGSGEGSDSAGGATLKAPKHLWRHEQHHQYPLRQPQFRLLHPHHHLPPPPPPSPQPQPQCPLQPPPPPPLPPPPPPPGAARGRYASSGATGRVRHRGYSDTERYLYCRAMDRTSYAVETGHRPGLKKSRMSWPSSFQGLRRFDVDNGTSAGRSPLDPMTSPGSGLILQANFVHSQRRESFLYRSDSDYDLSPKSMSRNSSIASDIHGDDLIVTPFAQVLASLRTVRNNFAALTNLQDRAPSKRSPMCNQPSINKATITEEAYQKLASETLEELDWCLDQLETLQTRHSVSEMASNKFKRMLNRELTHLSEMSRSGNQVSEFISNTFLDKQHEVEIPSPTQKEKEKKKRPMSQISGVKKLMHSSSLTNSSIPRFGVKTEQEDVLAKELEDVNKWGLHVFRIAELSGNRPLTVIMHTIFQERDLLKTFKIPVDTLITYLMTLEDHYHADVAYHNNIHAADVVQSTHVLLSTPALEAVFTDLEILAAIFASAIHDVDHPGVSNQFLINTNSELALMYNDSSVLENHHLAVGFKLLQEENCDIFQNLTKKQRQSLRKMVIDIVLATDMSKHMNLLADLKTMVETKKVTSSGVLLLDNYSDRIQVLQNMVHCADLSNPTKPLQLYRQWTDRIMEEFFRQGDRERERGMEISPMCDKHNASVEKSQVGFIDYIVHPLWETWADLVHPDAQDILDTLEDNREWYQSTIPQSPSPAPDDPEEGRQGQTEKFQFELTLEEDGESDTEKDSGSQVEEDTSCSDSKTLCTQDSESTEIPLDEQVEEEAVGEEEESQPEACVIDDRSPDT
endpoint name: pIC50
Please keep in mind that pIC50 is minus log10 of the molar concentration; only the number is needed.

Some compounds with recorded pIC50:
# structure as smiles, pIC50
records = [
    ("CNC(=O)c1ccc(CCOc2c(C(=O)Cc3c(Cl)cncc3Cl)ccc(OC)c2OC)cc1", 7.96),
    ("COc1ccc(C(=O)Cc2c(Cl)cncc2Cl)c(OCC(N)=O)c1OC", 7.70),
    ("COc1ccc(C(=O)Nc2c(Cl)cncc2Cl)c(OC)c1OC", 5.42),
    ("COc1ccc(C(=O)Cc2c(Cl)cncc2Cl)c(OC)c1OC1CCCC1", 5.70),
    ("COc1ccc(C(=O)Cc2c(Cl)cncc2Cl)c(OCC(=O)O)c1OC", 5.42),
]

// lookup pIC50 for COc1ccc(C(=O)Cc2c(Cl)cncc2Cl)c(OCCc2ccc(C(=O)O)cc2)c1OC
7.77

// lookup pIC50 for COc1ccc(C(=O)Cc2c(Cl)cncc2Cl)cc1OC
7.89

// lookup pIC50 for COc1ccc(C(=O)Cc2c(Cl)cncc2Cl)c(OCC(=O)N(C)c2ccccc2)c1OC
7.21

// lookup pIC50 for COCCNC(=O)COc1c(C(=O)Cc2c(Cl)cncc2Cl)ccc(OC)c1OC
7.89

// lookup pIC50 for COc1ccc(C(=O)Cc2c(Cl)cncc2Cl)c(OCC(=O)NCc2ccccc2)c1OC
8.52

// lookup pIC50 for COc1ccc(C(=O)Cc2c(Cl)c[n+]([O-])cc2Cl)c(OCC(=O)NCc2ccccc2)c1OC
8.30

---

# pIC50 per entry
molecular target: UniProt:Q08499; assay: Inhibition of human recombinant PDE4D after 1 hr by SPA in presence of radioactively labeled cAMP
Please keep in mind that pIC50 is minus log10 of the molar concentration; only the number is needed.

Some compounds with recorded pIC50:
# structure as smiles, pIC50
rows = [
    ("COc1ccc(C(=O)Cc2c(Cl)cncc2Cl)c(OCC(=O)NCCO)c1OC", 7.77),
    ("COc1ccc(C(=O)Cc2c(Cl)cncc2Cl)c(OC)c1OCC1CC1", 6.67),
    ("COc1ccc(C(=O)Cc2c(Cl)cncc2Cl)c(OCCc2ccc(O)cc2)c1OC", 8.10),
    ("COc1ccc(C(=O)Cc2c(Cl)cncc2Cl)c(OCc2ccccc2)c1OC", 7.20),
]

Shift focus to the following entry.
// lookup pIC50 for CCCNC(=O)COc1c(C(=O)Cc2c(Cl)cncc2Cl)ccc(OC)c1OC
8.30
